Biological target: ~100 representative kinases (Homo sapiens)
Construct: Recombinant protein kinase domains with a concentration of 2 μM
Sequence (P11362 22-822): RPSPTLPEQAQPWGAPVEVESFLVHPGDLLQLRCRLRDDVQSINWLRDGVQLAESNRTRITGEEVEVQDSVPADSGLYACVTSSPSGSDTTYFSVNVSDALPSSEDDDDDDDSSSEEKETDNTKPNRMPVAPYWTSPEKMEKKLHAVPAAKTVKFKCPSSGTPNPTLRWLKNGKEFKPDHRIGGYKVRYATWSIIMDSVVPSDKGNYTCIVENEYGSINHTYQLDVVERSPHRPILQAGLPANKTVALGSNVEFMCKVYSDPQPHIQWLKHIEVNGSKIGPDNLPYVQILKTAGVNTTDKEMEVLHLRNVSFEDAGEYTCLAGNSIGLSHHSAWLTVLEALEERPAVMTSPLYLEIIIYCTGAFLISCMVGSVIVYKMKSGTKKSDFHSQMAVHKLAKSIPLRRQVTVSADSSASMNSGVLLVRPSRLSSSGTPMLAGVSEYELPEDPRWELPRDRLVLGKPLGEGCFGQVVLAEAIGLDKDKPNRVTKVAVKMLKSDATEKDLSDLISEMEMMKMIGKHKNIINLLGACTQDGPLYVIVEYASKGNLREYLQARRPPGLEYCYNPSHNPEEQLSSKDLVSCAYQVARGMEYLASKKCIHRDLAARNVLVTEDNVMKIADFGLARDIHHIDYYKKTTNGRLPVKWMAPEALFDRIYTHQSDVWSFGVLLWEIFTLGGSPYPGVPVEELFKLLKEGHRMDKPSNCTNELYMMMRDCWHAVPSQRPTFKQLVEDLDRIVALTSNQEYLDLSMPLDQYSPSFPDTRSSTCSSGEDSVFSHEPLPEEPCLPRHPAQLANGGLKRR
Test: DSF 100 kinase selectivity screen;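 further: compound tested at 20 µM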
Type: binding
Settings: protein FGFR1; average of three replicates
readoutKind: dTm (K)
Answers are plain numbers, in K.

Worked examples, 3 compounds total:
1. COc1cc(S(C)(=O)=O)ccc1Nc1nc(N(C)C)c2c(Cl)c[nH]c2n1: 0.09
2. O=C(Nc1ccc(F)cc1)C1(C(=O)Nc2cccc(-c3c[nH]c4ncnc(N5CCOCC5)c34)c2)CC1: 1.19
3. Cn1cc(-c2c[nH]c3ncnc(N4CCOCC4)c23)cc1C#N: 0.13

Field dTm (entry O=C(Nc1ccc(Cl)cc1)C1(C(=O)Nc2cccc(-c3c[nH]c4ncnc(N5CCOCC5)c34)c2)CC1 ) reads 1.36
